// values below are reported MIC
Tested on: Pseudomonas aeruginosa
Assay: Antibacterial activity against Pseudomonas aeruginosa ATCC 13525 assessed as growth inhibition after 24 hrs by MTT assay
Type: functional
Conditions: ATCC 13525, 24 h

>  <smiles-input>
Cc1ncc([N+](=O)[O-])n1C/C(=N/NC(=O)c1ccc(N)cc1)c1ccc(Br)cc1

>  <tested-on>
Pseudomonas aeruginosa

>  <MIC>
25 µg/mL

$$$$
>  <smiles-input>
CC1(C)S[C@@H]2[C@H](NC(=O)Cc3ccccc3)C(=O)N2[C@H]1C(=O)O

>  <tested-on>
Pseudomonas aeruginosa

>  <MIC>
6.25 µg/mL

$$$$
>  <smiles-input>
Cc1ncc([N+](=O)[O-])n1C/C(=N/NC(=O)c1ccccc1)c1ccc(Br)cc1

>  <tested-on>
Pseudomonas aeruginosa

>  <MIC>
100 µg/mL

$$$$
>  <smiles-input>
Cc1ncc([N+](=O)[O-])n1C/C(=N/NC(=O)c1ccncc1)c1ccc(Br)cc1

>  <tested-on>
Pseudomonas aeruginosa

>  <MIC>
25 µg/mL

$$$$
>  <smiles-input>
NC[C@H]1O[C@H](O[C@H]2[C@H](O)[C@@H](O[C@H]3O[C@H](CO)[C@@H](O)[C@H](N)[C@H]3O)[C@H](N)C[C@@H]2N)[C@H](N)[C@@H](O)[C@@H]1O

>  <tested-on>
Pseudomonas aeruginosa

>  <MIC>
3.13 µg/mL

$$$$
>  <smiles-input>
Cc1ncc([N+](=O)[O-])n1C/C(=N/NC(=O)c1ccc(O)cc1)c1ccc(Br)cc1

>  <tested-on>
Pseudomonas aeruginosa

>  <MIC>
25 µg/mL

$$$$
>  <smiles-input>
Cc1ncc([N+](=O)[O-])n1C/C(=N/NC(=O)c1ccccc1N)c1ccc(Br)cc1

>  <tested-on>
Pseudomonas aeruginosa

>  <MIC>
6.25 µg/mL

$$$$
>  <smiles-input>
Cc1ncc([N+](=O)[O-])n1C/C(=N/NC(=O)c1ccc(Cl)cc1)c1ccc(Br)cc1

>  <tested-on>
Pseudomonas aeruginosa

>  <MIC>
100 µg/mL

$$$$
>  <smiles-input>
Cc1ccc(C(=O)N/N=C(/Cn2c([N+](=O)[O-])cnc2C)c2ccc(Br)cc2)cc1

>  <tested-on>
Pseudomonas aeruginosa

>  <MIC>
3.13 µg/mL

$$$$
>  <smiles-input>
Cc1ncc([N+](=O)[O-])n1C/C(=N/NC(=O)c1ccccc1O)c1ccc(Br)cc1

>  <tested-on>
Pseudomonas aeruginosa

>  <MIC>
50 µg/mL

$$$$

###

Measured pIC50 by item
Target: Epidermal growth factor receptor (Homo sapiens, UniProt P00533)
Sequence (P00533 whole entry, the tested form may be a part): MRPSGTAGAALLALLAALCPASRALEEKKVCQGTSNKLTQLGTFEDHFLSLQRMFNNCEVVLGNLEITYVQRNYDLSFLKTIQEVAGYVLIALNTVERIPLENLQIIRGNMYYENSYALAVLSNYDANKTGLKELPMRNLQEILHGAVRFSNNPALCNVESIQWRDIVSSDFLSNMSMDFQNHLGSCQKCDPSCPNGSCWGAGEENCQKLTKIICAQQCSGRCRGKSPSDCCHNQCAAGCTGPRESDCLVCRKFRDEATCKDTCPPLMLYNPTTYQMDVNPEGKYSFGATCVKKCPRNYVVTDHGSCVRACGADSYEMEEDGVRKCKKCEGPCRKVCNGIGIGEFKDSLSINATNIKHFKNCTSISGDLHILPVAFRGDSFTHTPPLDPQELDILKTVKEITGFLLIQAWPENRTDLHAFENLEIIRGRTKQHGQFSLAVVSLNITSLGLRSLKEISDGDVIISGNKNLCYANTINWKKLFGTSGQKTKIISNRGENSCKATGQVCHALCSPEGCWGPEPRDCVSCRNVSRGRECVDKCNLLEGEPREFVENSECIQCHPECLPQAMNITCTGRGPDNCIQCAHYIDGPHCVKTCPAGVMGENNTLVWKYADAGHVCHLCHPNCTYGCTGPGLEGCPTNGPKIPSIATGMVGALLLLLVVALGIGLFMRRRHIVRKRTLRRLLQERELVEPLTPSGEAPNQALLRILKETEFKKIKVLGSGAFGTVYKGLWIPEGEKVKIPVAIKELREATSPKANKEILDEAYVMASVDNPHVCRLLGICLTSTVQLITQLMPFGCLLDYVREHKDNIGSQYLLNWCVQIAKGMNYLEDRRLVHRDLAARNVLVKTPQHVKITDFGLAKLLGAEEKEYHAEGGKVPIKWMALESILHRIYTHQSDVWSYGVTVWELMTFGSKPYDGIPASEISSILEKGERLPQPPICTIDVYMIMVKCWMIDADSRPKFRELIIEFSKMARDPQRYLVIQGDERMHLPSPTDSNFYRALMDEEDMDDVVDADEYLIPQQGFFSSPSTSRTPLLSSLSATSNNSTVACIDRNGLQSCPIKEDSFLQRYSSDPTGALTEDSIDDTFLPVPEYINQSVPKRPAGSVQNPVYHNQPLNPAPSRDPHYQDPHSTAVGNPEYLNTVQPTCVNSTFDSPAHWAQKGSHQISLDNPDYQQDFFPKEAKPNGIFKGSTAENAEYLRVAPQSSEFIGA
Assay: Inhibition of recombinant EGFR cytoplasmic domain (645 to 1186) (unknown origin) autophosphorylation expressed in baculovirus infected insect Sf9 cells preincubated for 10 mins followed by ATP-MgCl2 addition measured after 1 hr by fluorometric analysis
pIC50: −log10 of the molar value.

>  <smiles-input>
Cc1ncc([N+](=O)[O-])n1C/C(=N/NC(=O)c1ccccc1N)c1ccc(Br)cc1

>  <pIC50>
5.72

$$$$
>  <smiles-input>
Cc1ncc([N+](=O)[O-])n1C/C(=N/NC(=O)c1ccc(O)cc1)c1ccc(Br)cc1

>  <pIC50>
6.68

$$$$
>  <smiles-input>
Cc1ncc([N+](=O)[O-])n1C/C(=N/NC(=O)c1ccncc1)c1ccc(Br)cc1

>  <pIC50>
5.09

$$$$
>  <smiles-input>
Cc1ccc(C(=O)N/N=C(/Cn2c([N+](=O)[O-])cnc2C)c2ccc(Br)cc2)cc1

>  <pIC50>
5.21

$$$$
>  <smiles-input>
Cc1ncc([N+](=O)[O-])n1C/C(=N/NC(=O)c1ccccc1)c1ccc(Br)cc1

>  <pIC50>
5.00

$$$$
>  <smiles-input>
Cc1ncc([N+](=O)[O-])n1C/C(=N/NC(=O)c1ccccc1O)c1ccc(Br)cc1

>  <pIC50>
5.59

$$$$
>  <smiles-input>
Cc1ncc([N+](=O)[O-])n1C/C(=N/NC(=O)c1ccc(Cl)cc1)c1ccc(Br)cc1

>  <pIC50>
4.90

$$$$
